Ref: the supplement of paper PMC7287046

test system: SNB75; experiment: HSA synergy score (Combenefit); higher = more synergy; details: exposure time: 72 h
Consider the following compounds and their measured HSA synergy score readings.
Number only, please.

Solved cases (4 shown):
COMPOUND: C#Cc1cccc(Nc2ncnc3cc(OCCOC)c(OCCOC)cc23)c1 [Erlotinib] + O=c1[nH]c2ccccc2n1C1CCN(Cc2ccc(-c3[nH]c4cc5ncnc5cc4nc3-c3ccccc3)cc2)CC1 [Akt inhibitor VIII]
HSA synergy score: 13.2

COMPOUND: Nc1ccn([C@@H]2O[C@H](CO)[C@@H](O)C2(F)F)c(=O)n1 [Gemcitabine] + C=CCc1cccc(/C=N/NC(=O)CN2CCN(Cc3ccccc3)CC2)c1O [PAC-1]
HSA synergy score: 5.49

COMPOUND: Nc1ccn([C@@H]2O[C@H](CO)[C@@H](O)C2(F)F)c(=O)n1 [Gemcitabine] + C[C@@H](Oc1cc(-c2cnn(C3CCNCC3)c2)cnc1N)c1c(Cl)ccc(F)c1Cl [Crizotinib]
HSA synergy score: 7.67

COMPOUND: CCCCCCCCCCCC1=C(O)C(=O)C=C(O)C1=O [Embelin] + N#CC(c1ccnc(NCCc2cccnc2)n1)c1nc2ccccc2s1 [AS601245]
HSA synergy score: 2.04

Reported HSA synergy score of CCC(=O)N1CCN(c2ccc(-n3c(=O)ccc4cnc5ccc(-c6cnc7ccccc7c6)cc5c43)cc2C(F)(F)F)CC1 [Torin1] + N#CC(c1ccnc(NCCc2cccnc2)n1)c1nc2ccccc2s1 [AS601245] : 0.213
